study system: Amine oxidase [flavin-containing] B (Homo sapiens, UniProt P27338)
Sequence (P27338 whole entry): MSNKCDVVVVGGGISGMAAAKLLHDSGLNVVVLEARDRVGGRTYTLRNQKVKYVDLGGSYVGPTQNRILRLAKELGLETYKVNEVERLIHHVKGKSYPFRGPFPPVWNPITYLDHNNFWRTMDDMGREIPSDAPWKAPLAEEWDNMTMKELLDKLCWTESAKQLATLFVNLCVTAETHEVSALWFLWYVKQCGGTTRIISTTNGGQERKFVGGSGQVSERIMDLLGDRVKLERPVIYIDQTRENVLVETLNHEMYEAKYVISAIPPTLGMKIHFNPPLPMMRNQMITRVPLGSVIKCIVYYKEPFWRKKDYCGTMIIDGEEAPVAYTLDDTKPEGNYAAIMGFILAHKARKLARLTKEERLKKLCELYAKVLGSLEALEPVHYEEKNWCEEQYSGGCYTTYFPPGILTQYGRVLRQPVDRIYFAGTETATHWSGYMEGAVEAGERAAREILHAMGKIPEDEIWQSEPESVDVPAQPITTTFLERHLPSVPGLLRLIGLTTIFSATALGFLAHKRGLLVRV
test protocol: Inhibition of recombinant human MAO-B using kynuramine as substrate by fluorescence spectrophotometry
pIC50: −log10 of the molar value.
Decide using pIC50: a value greater than or equal to 7 is YES, a smaller one is NO.

For orientation, consider the following solved cases.
O=[N+]([O-])/C=C/c1cccc(OCc2cccc(C(F)(F)F)c2)c1
NO
O=[N+]([O-])/C=C/c1cccc(OCc2ccc(F)cc2)c1
YES

q: Check this compound for pIC50 at or above 7: Cc1ccc(COc2cccc(/C=C/[N+](=O)[O-])c2)cc1
a: NO

====

study system: Amine oxidase [flavin-containing] A (Homo sapiens, UniProt P21397)
Sequence (P21397 whole entry): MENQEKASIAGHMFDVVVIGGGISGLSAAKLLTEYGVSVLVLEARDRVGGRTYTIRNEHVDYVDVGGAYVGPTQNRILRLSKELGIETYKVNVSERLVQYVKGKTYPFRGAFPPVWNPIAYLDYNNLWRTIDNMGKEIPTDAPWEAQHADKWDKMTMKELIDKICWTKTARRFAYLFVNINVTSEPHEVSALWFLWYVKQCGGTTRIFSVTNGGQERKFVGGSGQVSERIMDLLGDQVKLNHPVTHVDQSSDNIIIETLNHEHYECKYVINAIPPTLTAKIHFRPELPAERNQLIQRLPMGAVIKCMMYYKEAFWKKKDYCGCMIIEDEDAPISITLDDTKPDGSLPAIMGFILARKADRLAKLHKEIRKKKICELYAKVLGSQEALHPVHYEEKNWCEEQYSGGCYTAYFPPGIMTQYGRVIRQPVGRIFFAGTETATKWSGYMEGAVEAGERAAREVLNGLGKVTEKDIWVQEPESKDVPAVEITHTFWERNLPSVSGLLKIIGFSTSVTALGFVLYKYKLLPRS
test protocol: Inhibition of recombinant human MAO-A using kynuramine as substrate by fluorescence spectrophotometry
endpoint name: IC50

The reported value for Cc1ccc(COc2cccc(/C=C/[N+](=O)[O-])c2)cc1 in terms of IC50 is 9.36 µM

The reported value for O=[N+]([O-])/C=C/c1cccc(OCc2ccc(C(F)(F)F)cc2)c1 in terms of IC50 is 6.6 µM

The reported value for O=[N+]([O-])/C=C/c1cccc(OCc2cccc(Br)c2)c1 in terms of IC50 is 6.63 µM

====

study system: Amine oxidase [flavin-containing] B (Homo sapiens)
Sequence (P27338 whole entry): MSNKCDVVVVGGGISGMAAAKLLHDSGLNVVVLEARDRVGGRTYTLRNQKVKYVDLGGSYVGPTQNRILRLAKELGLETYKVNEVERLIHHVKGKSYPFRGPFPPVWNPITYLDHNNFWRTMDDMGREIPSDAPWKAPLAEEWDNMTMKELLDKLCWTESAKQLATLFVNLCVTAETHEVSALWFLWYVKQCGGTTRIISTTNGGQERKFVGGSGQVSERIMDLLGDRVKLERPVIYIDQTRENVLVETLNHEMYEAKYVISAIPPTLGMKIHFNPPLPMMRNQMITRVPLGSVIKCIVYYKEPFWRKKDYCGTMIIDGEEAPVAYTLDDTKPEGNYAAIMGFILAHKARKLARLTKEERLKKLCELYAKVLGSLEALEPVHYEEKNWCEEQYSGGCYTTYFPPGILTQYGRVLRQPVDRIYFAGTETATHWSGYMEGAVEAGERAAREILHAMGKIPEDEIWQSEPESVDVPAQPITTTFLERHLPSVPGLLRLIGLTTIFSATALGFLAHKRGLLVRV
test protocol: Inhibition of recombinant human MAO-B using kynuramine as substrate by fluorescence spectrophotometry
endpoint name: IC50 (nM)
The answer is to be given in nM; state only the numeric part.

O=[N+]([O-])/C=C/c1cccc(OCc2ccc(C(F)(F)F)cc2)c1
106
O=[N+]([O-])/C=C/c1cccc(OCc2ccccc2)c1
85

The reported value for O=[N+]([O-])/C=C/c1cccc(OCc2cccc(Cl)c2)c1 in terms of IC50 is 105

The measurements presented in this section are drawn from ChEMBL document CHEMBL4041517.
